Reference for the values: the supplement of paper PMC6555819

tested on: RARg:RXRa (NR concentration 270 nM, RXRa partner concentration 90 nM); test: PBM binding z-score (relative to random genomic background probes); higher = stronger binding; sequences stand for … in GC…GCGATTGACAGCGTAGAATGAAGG
Classification field: enter yes for PBM binding z-score values not below 1, no for values below it.

**Q:** Hello, I need to know if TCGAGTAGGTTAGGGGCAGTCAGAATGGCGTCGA has measured PBM binding z-score not below 1. Thanks!
**A:** no

**Q:** Hello, I need to know if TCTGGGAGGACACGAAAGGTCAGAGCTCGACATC has measured PBM binding z-score not below 1. Thanks!
**A:** yes

**Q:** Hello, I need to know if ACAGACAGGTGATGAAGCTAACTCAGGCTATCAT has measured PBM binding z-score not below 1. Thanks!
**A:** no

**Q:** Hello, I need to know if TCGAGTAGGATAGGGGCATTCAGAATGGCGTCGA has measured PBM binding z-score not below 1. Thanks!
**A:** no

**Q:** Hello, I need to know if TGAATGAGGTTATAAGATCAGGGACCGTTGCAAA has measured PBM binding z-score not below 1. Thanks!
**A:** yes

**Q:** Hello, I need to know if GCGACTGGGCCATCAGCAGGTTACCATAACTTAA has measured PBM binding z-score not below 1. Thanks!
**A:** no

**Q:** Hello, I need to know if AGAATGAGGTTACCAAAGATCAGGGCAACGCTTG has measured PBM binding z-score not below 1. Thanks!
**A:** yes

**Q:** Hello, I need to know if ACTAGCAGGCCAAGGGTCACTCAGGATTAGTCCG has measured PBM binding z-score not below 1. Thanks!
**A:** yes

**Q:** Hello, I need to know if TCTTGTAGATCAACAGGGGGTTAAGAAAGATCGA has measured PBM binding z-score not below 1. Thanks!
**A:** yes

**Q:** Hello, I need to know if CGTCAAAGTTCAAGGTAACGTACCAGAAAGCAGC has measured PBM binding z-score not below 1. Thanks!
**A:** yes

**Q:** Hello, I need to know if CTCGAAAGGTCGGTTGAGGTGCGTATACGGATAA has measured PBM binding z-score not below 1. Thanks!
**A:** yes

**Q:** Hello, I need to know if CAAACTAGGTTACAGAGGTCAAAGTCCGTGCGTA has measured PBM binding z-score not below 1. Thanks!
**A:** yes

**Q:** Hello, I need to know if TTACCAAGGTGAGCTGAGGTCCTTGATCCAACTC has measured PBM binding z-score not below 1. Thanks!
**A:** no

**Q:** Hello, I need to know if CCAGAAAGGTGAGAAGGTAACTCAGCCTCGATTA has measured PBM binding z-score not below 1. Thanks!
**A:** yes

**Q:** Hello, I need to know if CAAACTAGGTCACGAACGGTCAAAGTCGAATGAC has measured PBM binding z-score not below 1. Thanks!
**A:** yes

**Q:** Hello, I need to know if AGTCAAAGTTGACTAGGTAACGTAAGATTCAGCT has measured PBM binding z-score not below 1. Thanks!
**A:** no

**Q:** Hello, I need to know if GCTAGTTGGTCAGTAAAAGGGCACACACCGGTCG has measured PBM binding z-score not below 1. Thanks!
**A:** yes

**Q:** Hello, I need to know if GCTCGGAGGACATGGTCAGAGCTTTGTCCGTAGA has measured PBM binding z-score not below 1. Thanks!
**A:** no

**Q:** Hello, I need to know if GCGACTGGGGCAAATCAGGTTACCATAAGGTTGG has measured PBM binding z-score not below 1. Thanks!
**A:** no

**Q:** Hello, I need to know if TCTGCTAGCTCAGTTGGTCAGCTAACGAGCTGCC has measured PBM binding z-score not below 1. Thanks!
**A:** no

**Q:** Hello, I need to know if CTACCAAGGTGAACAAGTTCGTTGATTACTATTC has measured PBM binding z-score not below 1. Thanks!
**A:** no

**Q:** Hello, I need to know if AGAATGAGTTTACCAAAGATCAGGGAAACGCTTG has measured PBM binding z-score not below 1. Thanks!
**A:** no

**Q:** Hello, I need to know if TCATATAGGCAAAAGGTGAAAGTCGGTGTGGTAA has measured PBM binding z-score not below 1. Thanks!
**A:** yes

**Q:** Hello, I need to know if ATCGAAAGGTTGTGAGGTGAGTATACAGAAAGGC has measured PBM binding z-score not below 1. Thanks!
**A:** yes

**Q:** Hello, I need to know if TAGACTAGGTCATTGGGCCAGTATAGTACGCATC has measured PBM binding z-score not below 1. Thanks!
**A:** yes

**Q:** Hello, I need to know if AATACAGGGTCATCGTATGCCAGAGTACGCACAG has measured PBM binding z-score not below 1. Thanks!
**A:** yes

**Q:** Hello, I need to know if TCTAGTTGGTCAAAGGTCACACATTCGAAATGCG has measured PBM binding z-score not below 1. Thanks!
**A:** yes

**Q:** Hello, I need to know if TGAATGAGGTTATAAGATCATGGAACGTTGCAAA has measured PBM binding z-score not below 1. Thanks!
**A:** yes

**Q:** Hello, I need to know if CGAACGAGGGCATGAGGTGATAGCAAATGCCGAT has measured PBM binding z-score not below 1. Thanks!
**A:** yes

**Q:** Hello, I need to know if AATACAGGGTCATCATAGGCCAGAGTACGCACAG has measured PBM binding z-score not below 1. Thanks!
**A:** yes

**Q:** Hello, I need to know if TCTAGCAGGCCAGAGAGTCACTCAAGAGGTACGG has measured PBM binding z-score not below 1. Thanks!
**A:** no

**Q:** Hello, I need to know if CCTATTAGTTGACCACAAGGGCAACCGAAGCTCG has measured PBM binding z-score not below 1. Thanks!
**A:** yes

**Q:** Hello, I need to know if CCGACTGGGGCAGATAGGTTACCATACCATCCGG has measured PBM binding z-score not below 1. Thanks!
**A:** no

**Q:** Hello, I need to know if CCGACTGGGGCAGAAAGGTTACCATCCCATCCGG has measured PBM binding z-score not below 1. Thanks!
**A:** yes

**Q:** Hello, I need to know if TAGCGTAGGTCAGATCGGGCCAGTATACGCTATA has measured PBM binding z-score not below 1. Thanks!
**A:** yes

**Q:** Hello, I need to know if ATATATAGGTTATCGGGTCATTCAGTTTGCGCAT has measured PBM binding z-score not below 1. Thanks!
**A:** yes

**Q:** Hello, I need to know if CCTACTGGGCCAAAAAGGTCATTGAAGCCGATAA has measured PBM binding z-score not below 1. Thanks!
**A:** yes

**Q:** Hello, I need to know if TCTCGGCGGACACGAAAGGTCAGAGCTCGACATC has measured PBM binding z-score not below 1. Thanks!
**A:** yes

**Q:** Hello, I need to know if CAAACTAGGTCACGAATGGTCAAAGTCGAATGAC has measured PBM binding z-score not below 1. Thanks!
**A:** yes

**Q:** Hello, I need to know if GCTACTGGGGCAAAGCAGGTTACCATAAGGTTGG has measured PBM binding z-score not below 1. Thanks!
**A:** no

**Q:** Hello, I need to know if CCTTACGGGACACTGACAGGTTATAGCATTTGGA has measured PBM binding z-score not below 1. Thanks!
**A:** no

**Q:** Hello, I need to know if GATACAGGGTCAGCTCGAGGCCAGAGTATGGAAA has measured PBM binding z-score not below 1. Thanks!
**A:** yes

**Q:** Hello, I need to know if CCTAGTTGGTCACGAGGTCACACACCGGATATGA has measured PBM binding z-score not below 1. Thanks!
**A:** yes

**Q:** Hello, I need to know if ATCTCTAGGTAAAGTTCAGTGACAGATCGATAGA has measured PBM binding z-score not below 1. Thanks!
**A:** yes

**Q:** Hello, I need to know if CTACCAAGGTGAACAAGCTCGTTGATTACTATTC has measured PBM binding z-score not below 1. Thanks!
**A:** no

**Q:** Hello, I need to know if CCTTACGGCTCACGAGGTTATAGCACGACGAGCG has measured PBM binding z-score not below 1. Thanks!
**A:** no

**Q:** Hello, I need to know if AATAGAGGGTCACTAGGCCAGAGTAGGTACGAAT has measured PBM binding z-score not below 1. Thanks!
**A:** yes

**Q:** Hello, I need to know if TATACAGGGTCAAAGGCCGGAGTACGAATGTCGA has measured PBM binding z-score not below 1. Thanks!
**A:** yes

**Q:** Hello, I need to know if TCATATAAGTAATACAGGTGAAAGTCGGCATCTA has measured PBM binding z-score not below 1. Thanks!
**A:** no

**Q:** Hello, I need to know if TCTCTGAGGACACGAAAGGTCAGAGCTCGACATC has measured PBM binding z-score not below 1. Thanks!
**A:** yes

**Q:** Hello, I need to know if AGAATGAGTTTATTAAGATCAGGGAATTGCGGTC has measured PBM binding z-score not below 1. Thanks!
**A:** no
